# Test system: EKVX NSCLC
# Method notes: NCI-60 one-dose screen, 48 h (100 = growth as untreated, 0 = no growth, -100 = all killed)
# Cond: 10 µM unless noted
This is part of a sample that, as a whole, favours compounds with a hit. Of some 83,000 tested, about 20% had one in any assay.
Recorded endpoint: growth (%)
Give bare numbers, in %.

Here is how some compounds turned out for growth.
Smiles notation: CCCCn1c(C(=O)c2c[nH]c3ccccc23)n[nH]c1=S
Measure unit: %
Reported: 90.3

Smiles notation: CCN(c1cc(-c2ccc(CN3CCC(/C=C/S(=O)(=O)c4ccccc4)CC3)cc2)cc(C(=O)NCc2c(C)cc(C)[nH]c2=O)c1C)C1CCOCC1
Measure unit: %
Reported: 87.4

Smiles notation: C=CCOc1ccc(/C=C2\SC(=S)N(CCc3ccc(O)cc3)C2=O)cc1
Measure unit: %
Reported: 91.4

Problem: Given the entry Cc1ccc(C(=O)Nc2nc3c(s2)CN(Cc2ccccc2)CC3)cn1 , report its measured growth.
Result: 90.4

###

# Test system: SN12C renal
# Method notes: NCI-60 one-dose screen, 48 h (100 = growth as untreated, 0 = no growth, -100 = all killed)
# Cond: 10 µM unless noted
About 83,000 compounds went through this panel and 20% of them were active in at least one assay; those are over-represented in the sample as a whole.
Recorded endpoint: growth (%)
One number for each entry, in %.

Smiles notation: Cc1ccc(S(=O)(=O)OC[C@@]2(C)CC[C@]3(C)CC[C@]4(C)C(=CC[C@@H]5[C@@]6(C)CCCNC(C)(C)[C@@H]6CC[C@]54C)[C@@H]3C2)cc1
Test system: SN12C renal
Recorded endpoint: growth
Measure unit: %
Reported: -88.3

Smiles notation: O=C(CCl)n1nnnc1Cc1ccccc1
Test system: SN12C renal
Recorded endpoint: growth
Measure unit: %
Reported: 92.2

Smiles notation: CC(C)=CCc1cc(O)c(O)c2oc3cc(O)cc(O)c3c(=O)c12
Test system: SN12C renal
Recorded endpoint: growth
Measure unit: %
Reported: 58.4

Problem: Given the entry Cc1[nH]c(C(=O)Nc2nc3ccc(NC(=O)CCN)cc3s2)c(Cl)c1Cl , report its measured growth.
Result: 65.4

###

# Test system: HCT-15 colon
# Method notes: NCI-60 one-dose screen, 48 h
# Cond: 10 µM unless noted
The panel holds about 83,000 compounds, 20% with a hit somewhere; the sample as a whole holds those more often. The source made the active and inactive calls. The calls were made as follows: active = growth percent below 10; inactive = the rest.
Form entry, call: pick from yes (1) (active), no (0) (inactive)

Consider the following illustrative entries.
Smiles notation: CN1CCN(Cc2ccc(NC(=O)c3cccc(C#Cc4c(N)ncc5ccc(F)cc45)c3)cc2C(F)(F)F)CC1
Assigned class: yes (1)
//
Smiles notation: CCN(CC)/C([O-])=c1\cccc\c1=C1\N=C(c2ccccc2)N=C1[n+]1ccc(-c2ccccc2)cc1
Assigned class: no (0)
//
Smiles notation: COc1ccc2c(c1)c(-c1nc(-c3c[nH]c4c(Cl)nccc34)cs1)cn2C
Assigned class: no (0)

Problem: Name the outcome recorded for CN1CCN(c2ccc(Nc3ncc(C(N)=O)c(NCCCNC(=O)C4CCC4)n3)cc2)CC1 in the assay.
Result: no (0)

Problem: Name the outcome recorded for N=C(N)SCc1c2ccccc2c(CSC(=N)N)c2ccccc12 in the assay.
Result: no (0)
